The values you see were collected from patent US9725445B2.

- SYSTEM NAME: JAK2 (Homo sapiens (Human))
- Sequence (O60674 849-1124): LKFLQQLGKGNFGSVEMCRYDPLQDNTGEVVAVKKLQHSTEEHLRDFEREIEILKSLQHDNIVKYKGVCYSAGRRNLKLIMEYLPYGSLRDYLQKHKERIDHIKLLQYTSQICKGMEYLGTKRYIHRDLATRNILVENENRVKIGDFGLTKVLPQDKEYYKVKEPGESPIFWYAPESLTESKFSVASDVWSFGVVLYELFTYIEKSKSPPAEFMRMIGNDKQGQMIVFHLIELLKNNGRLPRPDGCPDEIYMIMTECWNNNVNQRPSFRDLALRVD
- PROTOCOL NOTES: Jak biochemical HTRF assay, JAK2
- PARTICULARS: HTRF biochemical assay, recombinant GST-tagged catalytic domain; read-out: JAK2 IC50
VALUE KIND: IC50 (nM)
Reply with just the number (in nM).

// query Please state recorded IC50 (tested on JAK2 (Homo sapiens (Human))) of `CC(C)(C)[S@+]([O-])N[C@H](c1cccc(Nc2nn([C@H]3CCCC[C@@H]3C#N)c3cc[nH]c(=O)c23)c1)C(F)(F)F`
// result 13

// query Ok, now CC(O)c1cccc(Nc2nn([C@H]3CCCC[C@@H]3C#N)c3cc[nH]c(=O)c23)c1 (stereo partly shown)
// result 1.7

// query Okay, and `N#C[C@H]1CCCC[C@@H]1n1nc(Nc2cccc(Cn3ccnn3)c2)c2c(=O)[nH]ccc21` ?
// result 0.49

// query Param item: `N#C[C@H]1C[C@H](N2CCC2)CC[C@@H]1n1nc(Nc2ccc(C(F)(F)F)cc2)c2c(=O)[nH]ccc21`
// result 60

----------
Assign IC50 to each entry below.
- SYSTEM NAME: JAK2 (Homo sapiens (Human))
- PROTOCOL NOTES: Jak biochemical HTRF assay, JAK2
- PARTICULARS: HTRF biochemical assay, recombinant GST-tagged catalytic domain; read-out: JAK2 IC50
Where a name gives a salt, the structure may show the parent alone.
Please report the result as a number followed by the unit.

// query Reported IC50 for Cc1cc(Nc2nn([C@H]3CCCC[C@@H]3C#N)c3cc[nH]c(=O)c23)ccc1C(C(C)C)n1ccnn1 (single isomer, unassigned) [Example 15-38] : what is it?
// result 0.15 nM

// query How about this compound: `CC(C)(C)OC(=O)[C@H]1CC[C@@H](N2Cc3cc(Nc4nn([C@H]5CCCC[C@@H]5C#N)c5cc[nH]c(=O)c45)ccc3S2(=O)=O)CC1`
// result 1.2 nM

// query Can you check `N#C[C@H]1C[C@@H](N2CCC2)CC[C@@H]1n1nc(Nc2ccc(Cl)cc2)c2c(=O)[nH]ccc21` next?
// result 13 nM

// query Then CCNC(c1ccc(Nc2nn([C@H]3CCC[C@@H]3C#N)c3cc[nH]c(=O)c23)cc1)C(F)(F)F (single isomer, unassigned) [Example 3-113] ?
// result 0.31 nM

// query Another compound: Cc1cc(Nc2nn([C@@H]3CCCCC[C@H]3C#N)c3cc[nH]c(=O)c23)ccc1C(O)C(F)(F)F (single isomer, unassigned) [Example 15-67]
// result 3.9 nM

// query Same lookup for `N#C[C@H]1C[C@H](N2CCC2)CC[C@@H]1n1nc(Nc2ccc(Cl)cc2)c2c(=O)[nH]ccc21` , please.
// result 33 nM

// query Please give the result for `N#C[C@H]1CCCC[C@@H]1n1nc(Nc2ccc3c(c2)CN(CC2CCCC2)S3(=O)=O)c2c(=O)[nH]ccc21` too.
// result 0.65 nM

// query `CC(C)NS(=O)(=O)c1ccc(Nc2nn([C@H]3CCCC[C@@H]3C#N)c3cc[nH]c(=O)c23)cc1` , same question.
// result 0.37 nM

// query Similarly, `N#C[C@H]1CCCC[C@@H]1n1nc(Nc2ccc3c(c2)CN(CC(F)(F)F)C3=O)c2c(=O)[nH]ccc21` ?
// result 0.43 nM

// query Please give the result for `N#C[C@H]1CCCC[C@@H]1n1nc(Nc2ccc3c(c2)CNS3(=O)=O)c2c(=O)[nH]ccc21` too.
// result 0.62 nM

// query Next: N#C[C@H]1CCCC[C@@H]1n1nc(Nc2ccc([C@@H]3C[C@H]4CC[C@@H](C3)N4)cc2)c2c(=O)[nH]ccc21 [Example 20-1, hydrochloride]
// result 0.57 nM

// query Moving on to the next compound: CC(C)NC(c1ccc(Nc2nn([C@H]3CCC[C@@H]3C#N)c3cc[nH]c(=O)c23)cc1)C(F)(F)F (single isomer, unassigned) [Example 3-116]
// result 0.2 nM

// query Another compound: `N#C[C@H]1CCCC[C@@H]1n1nc(Nc2cccc(CN3CCOCC3)c2)c2c(=O)[nH]ccc21`
// result 1.7 nM

// query Try this compound next: `Cc1cc(Nc2nn([C@H]3CCCC[C@@H]3C#N)c3cc[nH]c(=O)c23)ccc1C(=O)N1CCOCC1`
// result 0.28 nM

// query And then `N#CCCn1cc(-c2ccc(Nc3nn([C@H]4CCCC[C@@H]4C#N)c4cc[nH]c(=O)c34)cc2)cn1` , what is it?
// result 1.1 nM

// query Param item: N#C[C@H]1CCCC[C@@H]1n1nc(Nc2ccc(C(O)C(F)(F)F)cc2)c2c(=O)[nH]ccc21 (single isomer, unassigned) [Example 3-8]
// result 0.82 nM

// query Proceed to `N#C[C@H]1CCCC[C@@H]1n1nc(Nc2cccc(Cn3nccn3)c2)c2c(=O)[nH]ccc21`
// result 0.93 nM

// query Next compound: N#C[C@@H]1CCCCC[C@H]1n1nc(Nc2ccc3c(c2)CN(C2CCCC2)C3=O)c2c(=O)[nH]ccc21 (single isomer, unassigned)
// result 0.3 nM

// query What about this compound? `N#C[C@H]1CCCC[C@@H]1n1nc(Nc2cc(F)cc(CN)c2)c2c(=O)[nH]ccc21`
// result 2.3 nM

// query Ok, now `CC(C)(C)NS(=O)(=O)c1ccc(Nc2nn([C@H]3CCCC[C@@H]3C#N)c3cc[nH]c(=O)c23)cc1`
// result 0.43 nM

// query Moving on to `COCCn1cc(-c2ccc(Nc3nn([C@H]4CCCC[C@@H]4C#N)c4cc[nH]c(=O)c34)cc2)cn1`
// result 1.8 nM

// query Would you kindly repeat that for `N#C[C@H]1CCCC[C@@H]1n1nc(Nc2ccc(S(N)(=O)=O)cc2)c2c(=O)[nH]ccc21` ?
// result 0.85 nM

// query Request: `CNS(=O)(=O)c1ccc(Nc2nn([C@H]3CCCC[C@@H]3C#N)c3cc[nH]c(=O)c23)cc1`
// result 0.59 nM

// query What do you get for `N#C[C@H]1CCCC[C@@H]1n1nc(Nc2ccc(Cl)cc2)c2c(=O)[nH]ccc21` ?
// result 10.3 nM

// query // same read-out, input: N#C[C@H]1CCC[C@@H]1n1nc(Nc2ccc(C(N)C(F)(F)F)cc2)c2c(=O)[nH]ccc21 (single isomer, unassigned) [Example 3-103]
// result 0.7 nM

// query Try this compound next: CC(O)(c1ccc(Nc2nn([C@H]3CCC[C@@H]3C#N)c3cc[nH]c(=O)c23)cc1)C(F)(F)F (single isomer, unassigned) [Example 3-139]
// result 0.35 nM
